Numbers sourced from patent US10907134B2.

Please respond with reported Relative Luminescence Activity 6h-f-CTZ Imax for every item in the list.
# assay_procedure: Substrate specificities of KAZ mutants (ZZ-fused, crude enzyme), 6h-f-CTZ
# Type: biochemical
# condition_notes: 1 μg substrate, maximum intensity of luminescence
Give only the figure.

So what's the measured Relative Luminescence Activity 6h-f-CTZ Imax for this one? KAZ-V44I-A54I: KAZ mutant with two amino acid substitutions V44I and A54I, SEQ ID NO: 10 (protein) FTLADFVGDWQQTAGYNQDQVLEQGGLSSLFQALGVSVTPIQKIVLSGENGLKIDIHVIIPYEGLSGFQMGLIEMIFKVVYPVDDHHFKIILHYGTLVIDGVTPNMIDYFGRPYPGIAVFDGKQITVTGTLWNGNKIYDERLINPDGSLLFRVTINGVTGWRLCENILA 3.2

So what's the measured Relative Luminescence Activity 6h-f-CTZ Imax for this one? KAZ-A54I-Y138I: KAZ mutant with two amino acid substitutions A54I and Y138I, SEQ ID NO: 14 (protein) FTLADFVGDWQQTAGYNQDQVLEQGGLSSLFQALGVSVTPIQKVVLSGENGLKIDIHVIIPYEGLSGFQMGLIEMIFKVVYPVDDHHFKIILHYGTLVIDGVTPNMIDYFGRPYPGIAVFDGKQITVTGTLWNGNKIIDERLINPDGSLLFRVTINGVTGWRLCENILA 5.2

So what's the measured Relative Luminescence Activity 6h-f-CTZ Imax for this one? KAZ: wild 19 kDa catalytic protein of Oplophorus luciferase (19kOLase), amino acid sequence SEQ ID NO: 2 (protein, listed as Oplophorus gracilirostris) FTLADFVGDWQQTAGYNQDQVLEQGGLSSLFQALGVSVTPIQKVVLSGENGLKADIHVIIPYEGLSGFQMGLIEMIFKVVYPVDDHHFKIILHYGTLVIDGVTPNMIDYFGRPYPGIAVFDGKQITVTGTLWNGNKIYDERLINPDGSLLFRVTINGVTGWRLCENILA 0.6

So what's the measured Relative Luminescence Activity 6h-f-CTZ Imax for this one? KAZ-Y138I: KAZ with single amino acid substitution Y138I, SEQ ID NO: 8 (protein) FTLADFVGDWQQTAGYNQDQVLEQGGLSSLFQALGVSVTPIQKVVLSGENGLKADIHVIIPYEGLSGFQMGLIEMIFKVVYPVDDHHFKIILHYGTLVIDGVTPNMIDYFGRPYPGIAVFDGKQITVTGTLWNGNKIIDERLINPDGSLLFRVTINGVTGWRLCENILA 0.6

So what's the measured Relative Luminescence Activity 6h-f-CTZ Imax for this one? KAZ-V44I: KAZ with single amino acid substitution V44I, SEQ ID NO: 4 (protein) FTLADFVGDWQQTAGYNQDQVLEQGGLSSLFQALGVSVTPIQKIVLSGENGLKADIHVIIPYEGLSGFQMGLIEMIFKVVYPVDDHHFKIILHYGTLVIDGVTPNMIDYFGRPYPGIAVFDGKQITVTGTLWNGNKIYDERLINPDGSLLFRVTINGVTGWRLCENILA 0.6
